Target: T1, PadR WT (Bacillus subtilis, UniProt E0TW95 1-182)
T1 sequence: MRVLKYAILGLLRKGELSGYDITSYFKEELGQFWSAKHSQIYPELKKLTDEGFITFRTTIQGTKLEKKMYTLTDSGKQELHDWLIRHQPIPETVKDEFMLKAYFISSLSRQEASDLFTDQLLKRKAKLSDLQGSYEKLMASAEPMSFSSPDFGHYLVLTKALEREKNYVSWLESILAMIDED
Assay: fluorescence polarization
quantity.kind: Kd

operator G9T/G9'T (dsDNA) DNA 1: CGGAACATTTAAATAGTTAAATGATTAC DNA 2: GTAATCATTTAACTATTTAAATGTTCCG: 37.8 nM
operator T8A/T8'A (dsDNA) DNA 1: CGGAACAAGTAAATAGTTACTTGATTAC DNA 2: GTAATCAAGTAACTATTTACTTGTTCCG: 41 nM

Let us examine a further case.
q: Find the recorded Kd belonging to operator T10A/T10'A (dsDNA) DNA 1: CGGAACATGAAAATAGTTTCATGATTAC DNA 2: GTAATCATGAAACTATTTTCATGTTCCG and report it.
a: 11.6 nM
